Sourced from PubChem BioAssay AID1531

In this section we review reported binding response (% of control) values for a set of compounds.
measurement.target: Mitogen-activated protein kinase kinase kinase 2 (Homo sapiens)
experiment.summary: modulators of MEK5 binding to wildtype MEKK2, primary screen, biochemical, multiplex bead flow cytometry, Alexa488-MEK5 (AID 1531)
condition.details: Alexa488-MEK5 binding to MEKK2 WT, at 10 µM, actives lie on both sides
Hit rate of the full screen: of about 290,000 compounds, about 3,300 (1.1%) were called active. The list comes from a sample in which actives are over-represented; it also holds close analogues and randomly drawn compounds.
The reply should contain only the number, in %.

See these solved cases before continuing.
>>> quantitative_readout("Cc1ccc2c(c1)C1CN(C)CCC1N2C(=S)Nc1ccc(OC(F)F)cc1 (centres undefined)")
118
>>> quantitative_readout("COC(=O)CN1C(=O)[C@H]2[C@@H](/C=C/c3ccccc3)N3C(=O)CN(Cc4ccccc4)C(=O)[C@@]3(Cc3ccccc3)[C@H]2C1=O")
95
>>> quantitative_readout("Cc1ccc2c(c1)C1CN(C)CCC1N2C(=O)c1ccccc1NS(=O)(=O)c1ccc(F)cc1C (centres undefined)")
98

Next compound, please.
Would you mind telling me what binding response (% of control) value was observed for O=C(NC1CCCC1)C(c1c(F)cccc1Cl)N(C(=O)c1csnn1)C1CC1 (centres undefined) ?
95

* * *

measurement.target: Mitogen-activated protein kinase kinase kinase 2 (Homo sapiens)
experiment.summary: modulators of MEK5 binding to wildtype MEKK2, primary screen, biochemical, multiplex bead flow cytometry, Alexa488-MEK5 (AID 1531)
condition.details: Alexa488-MEK5 binding to MEKK2 WT, at 10 µM, actives lie on both sides
Hit rate of the full screen: of about 290,000 compounds, about 3,300 (1.1%) were called active. Rule as the data show it: active = binding response below about 67% or above about 130%; inconclusive = no clear call, values can overlap the other calls; inactive = in between. This is one part of a sample in which actives are shown more often than they occur.
Log the outcome using a class from active, inactive

Worked set:
>>> cat("Cc1ccc2sc(N(CCN(C)C)C(=O)/C=C/c3cccs3)nc2c1C")
"active"
>>> cat("N#CCSc1nc(-c2ccccc2)nc2ccc(F)cc12")
"inactive"

Query molecule follows.
Which result was noted for this molecule in the test: `O=C(CN1CCOc2ccccc21)N1CCC(Cc2ccccc2)CC1`
inactive

* * *

Each entry below carries its reported binding response (% of control).
measurement.target: Mitogen-activated protein kinase kinase kinase 2 (Homo sapiens) (UniProt Q9Y2U5)
experiment.summary: modulators of MEK5 binding to wildtype MEKK2, primary screen, biochemical, multiplex bead flow cytometry, Alexa488-MEK5 (AID 1531)
condition.details: Alexa488-MEK5 binding to MEKK2 WT, at 10 µM, actives lie on both sides
Screen size: about 290,000 compounds; about 3,300 (1.1%) were called active. The full list was thinned out, with actives kept by preference.
Give your result in % as a bare value.

>>> quantitative_readout("CCOc1cc(C)c(S(=O)(=O)NCc2ccccn2)cc1C")
102
>>> quantitative_readout("N#C/C(=C\\c1cccnc1)C(=O)Nc1ccc(SC(F)F)cc1")
107
>>> quantitative_readout("CCOc1ccccc1N1C(=O)CC(Sc2nccc(C)n2)C1=O (stereo unspecified)")
105
>>> quantitative_readout("COc1ccc(CCNCc2c(-c3ccccc3)n(C)c3ccccc23)cc1")
131
>>> quantitative_readout("Cc1ccc(SCC(=O)NNC(=O)c2ccc(S(C)(=O)=O)cc2)cc1")
102

# query: binding response (% of control) | item `Cc1ccc(S(=O)(=O)NC2CCCCCC2)cc1C(N)=O` | system: Mitogen-activated protein kinase kinase kinase 2 (Homo sapiens) (UniProt Q9Y2U5)
99
